So I've got a bunch of molecules here, and I need their -logMIC values.
Test system: Aspergillus niger
protocol details: Antifungal activity against Aspergillus niger MTCC 8184 after 7 days by tube dilution method
Format: functional
The reply should be a number, written without any unit.

Dear colleague, please send me the reported -logMIC for Cc1ccc(C2N=C(c3ccc(Br)cc3)Oc3ccc4ccccc4c32)cc1 (stereo not drawn) when you can.
1.53

Dear colleague, please send me the reported -logMIC for Clc1ccc(C2=NC(c3ccccc3)c3c(ccc4ccccc34)O2)cc1 (stereo not drawn) when you can.
1.47

Dear colleague, please send me the reported -logMIC for Cc1ccc(C2N=C(c3ccc(Cl)cc3)Oc3ccc4ccccc4c32)cc1 (stereo not drawn) when you can.
1.49

Dear colleague, please send me the reported -logMIC for Cc1ccc(C2=NC(c3ccccc3)c3c(ccc4ccccc34)O2)cc1 (stereo not drawn) when you can.
1.45

Dear colleague, please send me the reported -logMIC for Cc1ccc(C2=NC(c3ccc(C)cc3)c3c(ccc4ccccc34)O2)cc1 (stereo not drawn) when you can.
1.46

Dear colleague, please send me the reported -logMIC for Cc1ccc(C2N=C(c3ccccc3)Oc3ccc4ccccc4c32)cc1 (stereo not drawn) when you can.
1.45

Dear colleague, please send me the reported -logMIC for Brc1ccc(C2=NC(c3ccccc3)c3c(ccc4ccccc34)O2)cc1 (stereo not drawn) when you can.
1.52

Dear colleague, please send me the reported -logMIC for c1ccc(C2=NC(c3ccccc3)c3c(ccc4ccccc34)O2)cc1 (stereo not drawn) when you can.
1.43

Dear colleague, please send me the reported -logMIC for O=[N+]([O-])c1ccc(C2=NC(c3ccccc3)c3c(ccc4ccccc34)O2)cc1 (stereo not drawn) when you can.
1.48

Dear colleague, please send me the reported -logMIC for Cc1ccc(C2N=C(c3ccc([N+](=O)[O-])cc3)Oc3ccc4ccccc4c32)cc1 (stereo not drawn) when you can.
1.5

Dear colleague, please send me the reported -logMIC for Cc1ccc(C2N=C(c3ccc(F)cc3)Oc3ccc4ccccc4c32)cc1 (stereo not drawn) when you can.
1.47

Dear colleague, please send me the reported -logMIC for COc1ccc(C2=NC(c3ccc(OC)cc3)c3c(ccc4ccccc34)O2)cc1 (stereo not drawn) when you can.
1.5

Dear colleague, please send me the reported -logMIC for Fc1ccc(C2=NC(c3ccc(F)cc3)c3c(ccc4ccccc34)O2)cc1 (stereo not drawn) when you can.
1.47

Dear colleague, please send me the reported -logMIC for Fc1ccc(C2=NC(c3ccccc3)c3c(ccc4ccccc34)O2)cc1 (stereo not drawn) when you can.
1.45

Dear colleague, please send me the reported -logMIC for OC(Cn1cncn1)(Cn1cncn1)c1ccc(F)cc1F when you can.
2.64

Dear colleague, please send me the reported -logMIC for COc1ccc(C2=NC(c3ccc(C)cc3)c3c(ccc4ccccc34)O2)cc1 (stereo not drawn) when you can.
1.48

Dear colleague, please send me the reported -logMIC for COc1ccc(C2=NC(c3ccccc3)c3c(ccc4ccccc34)O2)cc1 (stereo not drawn) when you can.
1.47

Dear colleague, please send me the reported -logMIC for Clc1ccc(C2=NC(c3ccc(Cl)cc3)c3c(ccc4ccccc34)O2)cc1 (stereo not drawn) when you can.
1.51

----------
Tested on: PC-3
protocol details: Growth inhibition of human PC3 cells at 50 uM after 48 hrs by MTT assay
Type: functional
condition description: PC-3, 48 h, read-out: GI
Please mark Met if the recorded inhibition of growth at 50 µM is equal to or greater than 20%, and Not met if it falls below.

Quick check, inhibition of growth at 50 µM >= 20%? Cc1ccc(C2=NC(c3ccc(C)cc3)c3c(ccc4ccccc34)O2)cc1 (configuration not stated)
Not met

Quick check, inhibition of growth at 50 µM >= 20%? COc1ccc(C2=NC(c3ccccc3)c3c(ccc4ccccc34)O2)cc1 (configuration not stated)
Met

Quick check, inhibition of growth at 50 µM >= 20%? COc1ccc(C2=NC(c3ccc(C)cc3)c3c(ccc4ccccc34)O2)cc1 (configuration not stated)
Not met

Quick check, inhibition of growth at 50 µM >= 20%? COc1ccc(C2=NC(c3ccc(OC)cc3)c3c(ccc4ccccc34)O2)cc1 (configuration not stated)
Not met

Quick check, inhibition of growth at 50 µM >= 20%? O=[N+]([O-])c1ccc(C2=NC(c3ccccc3)c3c(ccc4ccccc34)O2)cc1 (configuration not stated)
Not met

Quick check, inhibition of growth at 50 µM >= 20%? Fc1ccc(C2=NC(c3ccccc3)c3c(ccc4ccccc34)O2)cc1 (configuration not stated)
Met

Quick check, inhibition of growth at 50 µM >= 20%? Cc1ccc(C2N=C(c3ccccc3)Oc3ccc4ccccc4c32)cc1 (configuration not stated)
Not met

----------
System: Staphylococcus aureus
protocol details: Antibacterial activity against Staphylococcus aureus MTCC 2901 after 24 hrs by tube dilution method
Type: functional
So I've got a bunch of compounds here, and I need their -logMIC values.

Dear colleague, please send me the reported -logMIC for Cc1ccc(C2N=C(c3ccc([N+](=O)[O-])cc3)Oc3ccc4ccccc4c32)cc1 (stereo not given) when you can.
1.8

Dear colleague, please send me the reported -logMIC for O=C(O)c1cn(C2CC2)c2cc(N3CCNCC3)c(F)cc2c1=O when you can.
2.61

Dear colleague, please send me the reported -logMIC for COc1ccc(C2=NC(c3ccc(OC)cc3)c3c(ccc4ccccc34)O2)cc1 (stereo not given) when you can.
1.5

Dear colleague, please send me the reported -logMIC for Cc1ccc(C2N=C(c3ccc(F)cc3)Oc3ccc4ccccc4c32)cc1 (stereo not given) when you can.
1.47

Dear colleague, please send me the reported -logMIC for COc1ccc(C2=NC(c3ccccc3)c3c(ccc4ccccc34)O2)cc1 (stereo not given) when you can.
1.77

Dear colleague, please send me the reported -logMIC for c1ccc(C2=NC(c3ccccc3)c3c(ccc4ccccc34)O2)cc1 (stereo not given) when you can.
1.43

Dear colleague, please send me the reported -logMIC for Cc1ccc(C2N=C(c3ccc(Cl)cc3)Oc3ccc4ccccc4c32)cc1 (stereo not given) when you can.
1.49

Dear colleague, please send me the reported -logMIC for Fc1ccc(C2=NC(c3ccccc3)c3c(ccc4ccccc34)O2)cc1 (stereo not given) when you can.
1.75

Dear colleague, please send me the reported -logMIC for Clc1ccc(C2=NC(c3ccc(Cl)cc3)c3c(ccc4ccccc34)O2)cc1 (stereo not given) when you can.
1.51

Dear colleague, please send me the reported -logMIC for Cc1ccc(C2=NC(c3ccc(C)cc3)c3c(ccc4ccccc34)O2)cc1 (stereo not given) when you can.
1.46

----------
So I've got a bunch of compounds here, and I need their inhibition of growth at 10 µM values.
Tested on: HCT-116
protocol details: Growth inhibition of human HCT116 cells at 10 uM after 48 hrs by MTT assay
Format: functional
condition description: HCT-116, 48 h, read-out: GI
Give the quantity in %, number only.

Dear colleague, please send me the reported inhibition of growth at 10 µM for Cc1ccc(C2=NC(c3ccccc3)c3c(ccc4ccccc34)O2)cc1 (stereo unspecified) when you can.
8

Dear colleague, please send me the reported inhibition of growth at 10 µM for COc1ccc(C2=NC(c3ccc(C)cc3)c3c(ccc4ccccc34)O2)cc1 (stereo unspecified) when you can.
7

Dear colleague, please send me the reported inhibition of growth at 10 µM for Clc1ccc(C2=NC(c3ccc(Cl)cc3)c3c(ccc4ccccc34)O2)cc1 (stereo unspecified) when you can.
2

Dear colleague, please send me the reported inhibition of growth at 10 µM for Cc1ccc(C2N=C(c3ccc(F)cc3)Oc3ccc4ccccc4c32)cc1 (stereo unspecified) when you can.
18

Dear colleague, please send me the reported inhibition of growth at 10 µM for COc1ccc(C2=NC(c3ccccc3)c3c(ccc4ccccc34)O2)cc1 (stereo unspecified) when you can.
8

Dear colleague, please send me the reported inhibition of growth at 10 µM for c1ccc(C2=NC(c3ccccc3)c3c(ccc4ccccc34)O2)cc1 (stereo unspecified) when you can.
5

Dear colleague, please send me the reported inhibition of growth at 10 µM for COc1ccc(C2=NC(c3ccc(OC)cc3)c3c(ccc4ccccc34)O2)cc1 (stereo unspecified) when you can.
27

Dear colleague, please send me the reported inhibition of growth at 10 µM for Cc1ccc(C2N=C(c3ccc(Cl)cc3)Oc3ccc4ccccc4c32)cc1 (stereo unspecified) when you can.
3

Dear colleague, please send me the reported inhibition of growth at 10 µM for Cc1ccc(C2=NC(c3ccc(C)cc3)c3c(ccc4ccccc34)O2)cc1 (stereo unspecified) when you can.
19

Dear colleague, please send me the reported inhibition of growth at 10 µM for O=[N+]([O-])c1ccc(C2=NC(c3ccccc3)c3c(ccc4ccccc34)O2)cc1 (stereo unspecified) when you can.
4

Dear colleague, please send me the reported inhibition of growth at 10 µM for Cc1ccc(C2N=C(c3ccc(Br)cc3)Oc3ccc4ccccc4c32)cc1 (stereo unspecified) when you can.
2
